Each record here notes measured Bliss interaction score.
Tested on: S. aureus DSM 20231
PROCEDURE_SUMMARY: Bliss interaction score (quartile over a dose matrix) (fitness difference); higher = more antagonism (negative = synergy);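 further: first quartile when negative (synergy) and third quartile when positive (antagonism)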
MEASUREMENT_TYPE: Bliss interaction score

COMPOUND	ENDPOINT_VALUE
CC(=O)OC[C@H]1O[C@@H]([S-])[C@H](OC(C)=O)[C@@H](OC(C)=O)[C@@H]1OC(C)=O.CCP(CC)CC.[Au+] [Auranofin] + COc1c(N2C[C@@H]3CCCN[C@@H]3C2)c(F)cc2c(=O)c(C(=O)O)cn(C3CC3)c12 [Moxifloxacin]	0.0832
C[C@@H](O)[C@H]1C(=O)N2C(C(=O)O)=C(SCCNC=N)C[C@H]12 [Imipenem] + COc1c(N2C[C@@H]3CCCN[C@@H]3C2)c(F)cc2c(=O)c(C(=O)O)cn(C3CC3)c12 [Moxifloxacin]	-0.0816
O=C(O[C@@H]1Cc2c(O)cc(O)cc2O[C@@H]1c1cc(O)c(O)c(O)c1)c1cc(O)c(O)c(O)c1 [EGCG] + O=C1CN(/N=C/c2ccc([N+](=O)[O-])o2)C(=O)N1 [Nitrofurantoin]	0.103
C[C@@H](O)[C@H]1C(=O)N2C(C(=O)O)=C(SCCNC=N)C[C@H]12 [Imipenem] + O=C1CN(/N=C/c2ccc([N+](=O)[O-])o2)C(=O)N1 [Nitrofurantoin]	0.0253
CC[C@H]1OC(=O)[C@H](C)[C@@H](O[C@H]2C[C@@](C)(OC)[C@@H](O)[C@H](C)O2)[C@H](C)[C@@H](O[C@@H]2O[C@H](C)C[C@H](N(C)C)[C@H]2O)[C@](C)(OC)C[C@@H](C)C(=O)[C@H](C)[C@@H](O)[C@]1(C)O [Clarithromycin] + C[C@H]1COc2c(N3CCN(C)CC3)c(F)cc3c(=O)c(C(=O)O)cn1c23 [Levofloxacin]	0.0901
O=C1CN(/N=C/c2ccc([N+](=O)[O-])o2)C(=O)N1 [Nitrofurantoin] + COc1ccc(C[C@H](N)C(=O)N[C@H]2[C@@H](O)[C@H](n3cnc4c(N(C)C)ncnc43)O[C@@H]2CO)cc1 [Puromycin]	0.0289
C/C(=C\C(=O)OCCCCCCCCC(=O)O)C[C@@H]1OC[C@H](C[C@@H]2O[C@H]2[C@@H](C)[C@H](C)O)[C@@H](O)[C@H]1O [Pseudomonic acid] + CCCSc1nc(N[C@@H]2C[C@H]2c2ccc(F)c(F)c2)c2nnn([C@@H]3C[C@H](OCCO)[C@@H](O)[C@H]3O)c2n1 [Ticagrelor]	0.241
CC[C@H]1OC(=O)[C@H](C)[C@@H](O[C@H]2C[C@@](C)(OC)[C@@H](O)[C@H](C)O2)[C@H](C)[C@@H](O[C@@H]2O[C@H](C)C[C@H](N(C)C)[C@H]2O)[C@](C)(OC)C[C@@H](C)C(=O)[C@H](C)[C@@H](O)[C@]1(C)O [Clarithromycin] + CN1CCC[C@H]1c1cccnc1 [Nicotine]	-0.223

----------
Below is a list of entries, each paired with its recorded Bliss interaction score value.
Test system: S. pneumoniae D39V
PROCEDURE_SUMMARY: Bliss interaction score (quartile over a dose matrix) (fitness difference); higher = more antagonism (negative = synergy)
MEASUREMENT_TYPE: Bliss interaction score

MOLECULE	ENDPOINT_VALUE
CC(=O)OC[C@H]1O[C@@H]([S-])[C@H](OC(C)=O)[C@@H](OC(C)=O)[C@@H]1OC(C)=O.CCP(CC)CC.[Au+] [Auranofin] + CN(C)[C@@H]1C(O)=C(C(N)=O)C(=O)[C@@]2(O)C(O)=C3C(=O)c4c(O)ccc(Cl)c4[C@@](C)(O)[C@H]3C[C@@H]12 [Clortetracycline]	0.0541
O=C(O[C@@H]1Cc2c(O)cc(O)cc2O[C@@H]1c1cc(O)c(O)c(O)c1)c1cc(O)c(O)c(O)c1 [EGCG] + CO[C@H]1/C=C/O[C@@]2(C)Oc3c(C)c(O)c4c(O)c(c(/C=N/N5CCN(C)CC5)c(O)c4c3C2=O)NC(=O)/C(C)=C\C=C\[C@H](C)[C@H](O)[C@@H](C)[C@@H](O)[C@@H](C)[C@H](OC(C)=O)[C@@H]1C [Rifampicin]	-0.0502
C[C@@H](O)[C@H]1C(=O)N2C(C(=O)O)=C(SCCNC=N)C[C@H]12 [Imipenem] + COc1c(N2C[C@@H]3CCCN[C@@H]3C2)c(F)cc2c(=O)c(C(=O)O)cn(C3CC3)c12 [Moxifloxacin]	0.0521
O=C1CN(/N=C/c2ccc([N+](=O)[O-])o2)C(=O)N1 [Nitrofurantoin] + COc1ccc(C[C@H](N)C(=O)N[C@H]2[C@@H](O)[C@H](n3cnc4c(N(C)C)ncnc43)O[C@@H]2CO)cc1 [Puromycin]	-0.135

----------
System: S. aureus Newman
PROCEDURE_SUMMARY: Bliss interaction score (quartile over a dose matrix) (fitness difference); higher = more antagonism (negative = synergy)
MEASUREMENT_TYPE: Bliss interaction score

MOLECULE	TARGET_OF_ASSAY	ENDPOINT_VALUE
O=C1CN(/N=C/c2ccc([N+](=O)[O-])o2)C(=O)N1 [Nitrofurantoin] + CN(C)c1cc(NC(=O)CNC(C)(C)C)c(O)c2c1C[C@H]1C[C@H]3[C@H](N(C)C)C(O)=C(C(N)=O)C(=O)[C@@]3(O)C(O)=C1C2=O [Tigecycline]	S. aureus Newman	0.0708
O=C(O[C@@H]1Cc2c(O)cc(O)cc2O[C@@H]1c1cc(O)c(O)c(O)c1)c1cc(O)c(O)c(O)c1 [EGCG] + CCN(CC)CCOC(=O)c1ccc(N)cc1 [Procaine]	S. aureus Newman	-0.124
O=C(N[C@H](CO)[C@H](O)c1ccc([N+](=O)[O-])cc1)C(Cl)Cl [Chloramphenicol] + O=C1CN(/N=C/c2ccc([N+](=O)[O-])o2)C(=O)N1 [Nitrofurantoin]	S. aureus Newman	-0.0842
CCC[C@@H]1C[C@@H](C(=O)N[C@@H]([C@H]2O[C@H](SC)[C@H](O)[C@@H](O)[C@H]2O)[C@H](C)Cl)N(C)C1 [Clindamycin] + Oc1cc(Cl)ccc1Oc1ccc(Cl)cc1Cl [Triclosan]	S. aureus Newman	0.0225
CC(=O)OC[C@H]1O[C@@H]([S-])[C@H](OC(C)=O)[C@@H](OC(C)=O)[C@@H]1OC(C)=O.CCP(CC)CC.[Au+] [Auranofin] + C1=CC(=CC(=C1)Cl)NN=C(C#N)C#N [CCCP]	S. aureus Newman	0.0798

----------
Bliss interaction score reference
Test system: S. pneumoniae D39V
PROCEDURE_SUMMARY: Bliss interaction score (quartile over a dose matrix) (fitness difference); higher = more antagonism (negative = synergy)

COMPOUND	TARGET_OF_ASSAY	Bliss interaction score
O=C(O[C@@H]1Cc2c(O)cc(O)cc2O[C@@H]1c1cc(O)c(O)c(O)c1)c1cc(O)c(O)c(O)c1 [EGCG] + CN(N=O)C(=O)N[C@@H](C=O)[C@@H](O)[C@H](O)[C@H](O)CO [Streptozotocin]	S. pneumoniae D39V	0.0662
N[C@@H]1CONC1=O [CycloserineD] + C[C@@H]1O[C@@H]1P(=O)(O)O [Fosfomycin]	S. pneumoniae D39V	0.0808
CC(=O)OC[C@H]1O[C@@H]([S-])[C@H](OC(C)=O)[C@@H](OC(C)=O)[C@@H]1OC(C)=O.CCP(CC)CC.[Au+] [Auranofin] + CN(N=O)C(=O)N[C@@H](C=O)[C@@H](O)[C@H](O)[C@H](O)CO [Streptozotocin]	S. pneumoniae D39V	0.105
O=C(N[C@H](CO)[C@H](O)c1ccc([N+](=O)[O-])cc1)C(Cl)Cl [Chloramphenicol] + CC[C@H]1OC(=O)[C@H](C)[C@@H](O[C@H]2C[C@@](C)(OC)[C@@H](O)[C@H](C)O2)[C@H](C)[C@@H](O[C@@H]2O[C@H](C)C[C@H](N(C)C)[C@H]2O)[C@](C)(O)C[C@@H](C)C(=O)[C@H](C)[C@@H](O)[C@]1(C)O [Erythromycin]	S. pneumoniae D39V	0.0269
CC[C@H]1OC(=O)[C@H](C)[C@@H](O[C@H]2C[C@@](C)(OC)[C@@H](O)[C@H](C)O2)[C@H](C)[C@@H](O[C@@H]2O[C@H](C)C[C@H](N(C)C)[C@H]2O)[C@](C)(OC)C[C@@H](C)C(=O)[C@H](C)[C@@H](O)[C@]1(C)O [Clarithromycin] + N[C@@H]1CONC1=O [CycloserineD]	S. pneumoniae D39V	0.136
CC[C@H]1OC(=O)[C@H](C)[C@@H](O[C@H]2C[C@@](C)(OC)[C@@H](O)[C@H](C)O2)[C@H](C)[C@@H](O[C@@H]2O[C@H](C)C[C@H](N(C)C)[C@H]2O)[C@](C)(OC)C[C@@H](C)C(=O)[C@H](C)[C@@H](O)[C@]1(C)O [Clarithromycin] + CC1(C)S[C@@H]2[C@H](NC(=O)Cc3ccccc3)C(=O)N2[C@H]1C(=O)O [PenicillinG]	S. pneumoniae D39V	-0.0413
CCC[C@@H]1C[C@@H](C(=O)N[C@@H]([C@H]2O[C@H](SC)[C@H](O)[C@@H](O)[C@H]2O)[C@@H](C)O)N(C)C1 [Lincomycin] + CN(C)C(=O)C(CCN1CCC(O)(c2ccc(Cl)cc2)CC1)(c1ccccc1)c1ccccc1 [Loperamide]	S. pneumoniae D39V	0.187
O=C(N[C@H](CO)[C@H](O)c1ccc([N+](=O)[O-])cc1)C(Cl)Cl [Chloramphenicol] + O=C(O)c1cn(C2CC2)c2cc(N3CCNCC3)c(F)cc2c1=O [Ciprofloxacin]	S. pneumoniae D39V	-0.0621
O=C1CN(/N=C/c2ccc([N+](=O)[O-])o2)C(=O)N1 [Nitrofurantoin] + Oc1cc(Cl)ccc1Oc1ccc(Cl)cc1Cl [Triclosan]	S. pneumoniae D39V	0.0809
COc1c(N2C[C@@H]3CCCN[C@@H]3C2)c(F)cc2c(=O)c(C(=O)O)cn(C3CC3)c12 [Moxifloxacin] + CC[C@H]1OC(=O)[C@H](C)C(=O)[C@H](C)[C@@H](O[C@@H]2O[C@H](C)C[C@H](N(C)C)[C@H]2O)[C@](C)(OC)C[C@@H](C)C(=O)[C@H](C)[C@H]2N(CCCCn3cnc(-c4cccnc4)c3)C(=O)O[C@]12C [Telithromycin]	S. pneumoniae D39V	0.0543
CC(=O)OC[C@H]1O[C@@H]([S-])[C@H](OC(C)=O)[C@@H](OC(C)=O)[C@@H]1OC(C)=O.CCP(CC)CC.[Au+] [Auranofin] + CC1=C\[C@@H](O)CC(=O)Cc2nc(co2)C(=O)N2CCC=C2C(=O)O[C@H](C(C)C)[C@H](C)/C=C/C(=O)NC\C=C\1 [Virginiamycin M1]	S. pneumoniae D39V	0.0585
CCC[C@@H]1C[C@@H](C(=O)N[C@@H]([C@H]2O[C@H](SC)[C@H](O)[C@@H](O)[C@H]2O)[C@H](C)Cl)N(C)C1 [Clindamycin] + CN(C)[C@@H]1C(O)=C(C(N)=O)C(=O)[C@@]2(O)C(O)=C3C(=O)c4c(O)ccc(Cl)c4[C@@](C)(O)[C@H]3C[C@@H]12 [Clortetracycline]	S. pneumoniae D39V	-0.0954
CCC[C@@H]1C[C@@H](C(=O)N[C@@H]([C@H]2O[C@H](SC)[C@H](O)[C@@H](O)[C@H]2O)[C@H](C)Cl)N(C)C1 [Clindamycin] + C[n+]1ccc(-c2cc[n+](C)cc2)cc1 [Paraquat]	S. pneumoniae D39V	0.0554
O=C1CN(/N=C/c2ccc([N+](=O)[O-])o2)C(=O)N1 [Nitrofurantoin] + CN1C2=CC=CC=C2N=C3C1=CC=CC3=O [Pyocyanin]	S. pneumoniae D39V	-0.199
CC(=O)OC[C@H]1O[C@@H]([S-])[C@H](OC(C)=O)[C@@H](OC(C)=O)[C@@H]1OC(C)=O.CCP(CC)CC.[Au+] [Auranofin] + CN(C)C(=O)C(CCN1CCC(O)(c2ccc(Cl)cc2)CC1)(c1ccccc1)c1ccccc1 [Loperamide]	S. pneumoniae D39V	0.116
